The values you see were collected from patent US20250197490A1.

- System name: T1, biotinylated CRH (human and mouse, UniProt P01143 145-185 (rat entry), not fully specified; biotin; which end is not stated for the result (NT-biotin and CT-biotin forms were used))
- T1 construct: also called biotin-CRH; CRH (NT biotin)
- T1 peptide: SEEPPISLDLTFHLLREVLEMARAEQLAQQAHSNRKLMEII
- Protocol summary: ELISA, CRH (NT biotin)
Recorded endpoint: EC50 (read off the curve)

Problem: Which EC50 (read off the curve) value belongs to PR005662 (antibody, human IgG1, kappa, V domains shown) VH: EVQLVESGGVLVQPGGSLRLSCAASGFTFSSYWMTWVRQAPGKGLEWVANIKQDASEKYYVDSVKGRFTISRDNAKNSLFLQMNSLRAEDTAVYYCARTLIFDYWGQGTLVTVSS VL: DIVMTQSPLSLPVTPGEPASISCRSSQSLLHSTGYQSLEWYLQKPGQSPQLLIYLGSNRASGVPDRFSGSGSGTDFTLKISRVEAEDVGIYYCMQTLQTPITFGQGTRLEIKR ?
Result: ~30 pM

Problem: Which EC50 (read off the curve) value belongs to PR005656 (antibody, human IgG1, kappa, V domains shown) VH: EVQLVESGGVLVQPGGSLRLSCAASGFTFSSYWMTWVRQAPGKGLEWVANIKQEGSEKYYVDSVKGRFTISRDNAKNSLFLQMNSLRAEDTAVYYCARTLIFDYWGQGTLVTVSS VL: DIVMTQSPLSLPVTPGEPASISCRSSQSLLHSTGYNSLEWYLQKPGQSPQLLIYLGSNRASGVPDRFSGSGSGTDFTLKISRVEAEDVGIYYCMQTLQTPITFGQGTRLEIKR ?
Result: ~30 pM

Problem: Which EC50 (read off the curve) value belongs to PR004290 (antibody, human IgG1, kappa, V domains shown, human IgG1 wildtype Fc; also called Hybridoma Clone 28b3) VH: EVQLVESGGVLVQPGGSLRLSCAASGFTFSSYWMTWVRQAPGKGLEWVANIKQDGSEKYYVDSVKGRFTISRDNAKNSLFLQMNSLRAEDTAVYYCARTLIFDYWGQGTLVTVSS VL: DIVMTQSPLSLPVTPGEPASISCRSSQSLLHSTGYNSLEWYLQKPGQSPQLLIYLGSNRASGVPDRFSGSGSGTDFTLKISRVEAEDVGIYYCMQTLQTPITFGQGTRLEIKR ?
Result: ~30 pM
